system: NCI-H1915; experiment: relative viability (nuclei count vs DMSO), 5 days (fraction); higher = more cells survive; settings: first compound 0.08 µM
Collected relative viability values appear next to each entry.

{"columns": ["compound", "relative viability"],
 "data": [
  ["COc1nc(C)cnc1NS(=O)(=O)c1cccnc1-c1ccc(-c2nnco2)cc1 [Zibotentan] + CS(=O)(=O)N1CCN(Cc2cc3nc(-c4cccc5[nH]ncc45)nc(N4CCOCC4)c3s2)CC1 [Pictilisib] (partner 1 µM)", 1.01],
  ["COc1nc(C)cnc1NS(=O)(=O)c1cccnc1-c1ccc(-c2nnco2)cc1 [Zibotentan] + CS(=O)(=O)CCNCc1ccc(-c2ccc3ncnc(Nc4ccc(OCc5cccc(F)c5)c(Cl)c4)c3c2)o1 [Lapatinib] (partner 2 µM)", 1.03],
  ["O=c1cc(-c2cccc3c2Sc2ccccc2S3)oc(N2CCOCC2)c1 + COc1cc2c(Oc3ccc(NC(=O)C4(C(=O)Nc5ccc(F)cc5)CC4)cc3F)ccnc2cc1OCCCN1CCOCC1 [Foretinib] (partner 0.25 µM)", 1.21],
  ["COc1nc(C)cnc1NS(=O)(=O)c1cccnc1-c1ccc(-c2nnco2)cc1 [Zibotentan] + CC(=O)Nc1cccc(-n2c(=O)n(C3CC3)c(=O)c3c(Nc4ccc(I)cc4F)n(C)c(=O)c(C)c32)c1 [Trametinib] (partner 0.02 µM)", 0.325]
]}
